Assay: Pharmacokinetics of decitabine in IVAP rabbit model
Format: in vivo, rabbits
Conditions: rabbit, plasma, po, 2.5 mg/kg, 2.5 mg/kg Oral
experimental-readout: half-life (min)

* Nc1ncn([C@H]2C[C@H](O)[C@@H](CO)O2)c(=O)n1 | 41.4

---

Test: in vivo
Conditions: male, beagle, dog, po, 0.2 mg/kg, Relative bioavailability calculated in portal vein
experimental-readout: bioavailability

- OC[C@H]1O[C@@H](n2cnc3c2NC=NC[C@H]3O)C[C@@H]1O [pentostatin, 2′-deoxycoformycin]: 100%

---

Assay: Pharmacokinetics of decitabine in IVAP rabbit model
Format: in vivo, rabbits
Settings: rabbit, plasma, po, 2.5 mg/kg, Oral 2.5 mg/kg
experimental-readout: TMAX

* Nc1ncn([C@H]2C[C@H](O)[C@@H](CO)O2)c(=O)n1 | 25.2 min
